Target: UniProtKB Q13627
Assay: DYRK1A kinase assay (Ser/Thr 18 peptide Z-lyte FRET)
Type: biochemical
Details: read-out: EC50 (method: IC50)
Method: Representative compounds were screened using the assay procedure for DYRK1A kinase activity as described below. This is a non-radioactive assay using fluorescence resonance energy transfer (FRET) between coumarin and fluorescein to detect kinase activity which is represented as a ratio of coumarin emission/fluorescein emission. The mixture was allowed to incubate with the representative compounds for one hour at room temperature. All reactions were performed in duplicate. […]
assayMetric: IC50 (µM)
Your answer should be a plain number; it is taken to be in µM.

Consider Cc1ncc(-c2ccc3[nH]nc(C(=O)N[C@@H](C)C(F)(F)F)c3c2)n1C . Its measured IC50 is 0.22

Consider CC(C)NC(=O)c1n[nH]c2ccc(-c3cnn(C4CCNCC4)c3)cc12 . Its measured IC50 is 0.055

Consider Cc1c(-c2cc3c(C(=O)Nc4ccc(OC5CCN(C)CC5)cc4)n[nH]c3cc2F)cnn1C . Its measured IC50 is 0.001

Consider CN1CCC(Oc2ccc(NC(=O)c3n[nH]c4cc(F)c(-c5cnn(C)c5)cc34)cc2)CC1 . Its measured IC50 is 0.002

Consider CN1CCC(CNC(=O)c2n[nH]c3ccc(-c4cnn(C)c4)cc23)CC1 . Its measured IC50 is 0.026

Consider CN1CCC(n2cc(-c3cc4c(C(=O)Nc5ccc(OC(F)F)cc5)n[nH]c4cc3F)cn2)CC1 . Its measured IC50 is 0.028

Consider CN1CCC(Oc2ccc(NC(=O)c3n[nH]c4ccc(-c5cnn(C)c5)cc34)cc2)CC1 . Its measured IC50 is 0.002

Consider CN1CCC(n2cc(NC(=O)c3n[nH]c4ccc(-c5cnn(C)c5)cc34)cn2)CC1 . Its measured IC50 is 0.001

Consider C[C@@H](NC(=O)c1n[nH]c2ccc(-c3cnn(C)c3)cc12)C(F)(F)F . Its measured IC50 is 0.134

Consider Cn1ncc(-c2ccc3[nH]nc(C(=O)NC4CCN(CC(C)(C)F)CC4)c3c2)c1C(F)F . Its measured IC50 is 0.25

Consider Cn1cc(-c2ccc3[nH]nc(C(=O)Nc4ccc(CN5CCCC5)cc4O)c3c2)cn1 . Its measured IC50 is 0.305

Consider O=C(Nc1ccc(N2CCCC2)nc1)c1n[nH]c2ccc(-c3cnn(C4CC4)c3)cc12 . Its measured IC50 is 0.05

Consider O=C(Nc1ccc(N2CCCC2)nc1)c1n[nH]c2ccc(-c3cnn(C4CCNCC4)c3)cc12 . Its measured IC50 is 0.006

Consider O=C(Nc1ccc(N2CCCC2)nc1)c1n[nH]c2cc(F)c(-c3cnn(C4CCNCC4)c3)cc12 . Its measured IC50 is 0.004

Consider Cc1c(-c2ccc3[nH]nc(C(=O)NC4CCC(F)(F)CC4)c3c2)cnn1C . Its measured IC50 is 0.013

Consider Cc1nc(-c2ccc3[nH]nc(C(=O)Nc4ccc(OC5CCN(C)CC5)cc4)c3c2)cs1 . Its measured IC50 is 0.141

Consider Cn1cc(-c2cc3c(C(=O)Nc4ccc(OCCN5CCCC5)cc4)n[nH]c3cc2F)cn1 . Its measured IC50 is 0.001

Consider O=C(N[C@@H]1CCCC[C@H]1F)c1n[nH]c2ccc(-c3cnn(C4CC4)c3)cc12 . Its measured IC50 is 0.171

Consider CN1CCN(Cc2ccc(NC(=O)c3n[nH]c4cc(F)c(-c5cnn(C)c5)cc34)cc2)CC1 . Its measured IC50 is 0.001

Consider O=C(Nc1ccc(OC(F)F)cc1)c1n[nH]c2ccc(-c3cnn(C4CCN(CCF)CC4)c3)cc12 . Its measured IC50 is 1.5

Consider Cc1ncc(NC(=O)c2n[nH]c3ccc(-c4cnn(C5CCN(C)CC5)c4)cc23)s1 . Its measured IC50 is 0.002

Consider CN1CC2(CCC(NC(=O)c3n[nH]c4ccc(-c5cnn(C)c5)cc34)CC2)C1 . Its measured IC50 is 0.006

Consider Cc1ncc(-c2ccc3[nH]nc(C(=O)NC4CCN(CC(C)(C)F)CC4)c3c2)n1C . Its measured IC50 is 0.028

Consider CN1CCC(c2ccc(NC(=O)c3n[nH]c4cc(F)c(-c5cnn(C)c5)cc34)cc2)CC1 . Its measured IC50 is 0.004

Consider Cn1cc(-c2cc3c(C(=O)NC4CCC(F)(F)CC4)n[nH]c3cc2F)cn1 . Its measured IC50 is 0.036

Consider Cn1cc(-c2ccc3[nH]nc(C(=O)N[C@H]4CC[C@H](CN5CCCC5)CC4)c3c2)cn1 . Its measured IC50 is 0.002

Consider Cc1ncc(-c2ccc3[nH]nc(C(=O)Nc4ccc(OC5CCN(C)CC5)cc4)c3c2)s1 . Its measured IC50 is 0.007

Consider Cc1ncc(-c2ccc3[nH]nc(C(=O)N[C@H]4CCN(CC(C)C)C[C@@H]4F)c3c2)n1C . Its measured IC50 is 0.046

Consider Cn1cc(-c2cc3c(C(=O)Nc4ccc(CN5CCC(F)CC5)cc4)n[nH]c3cc2F)cn1 . Its measured IC50 is 0.003

Consider O=C(Nc1ccc(F)cc1)c1n[nH]c2ccc(-c3nnc4n3CCNC4)cc12 . Its measured IC50 is 0.027

Consider CCn1cc(-c2ccc3[nH]nc(C(=O)Nc4ccc(CN5CCCC5)cc4)c3c2)cn1 . Its measured IC50 is 0.005

Consider Cc1ncc(-c2ccc3[nH]nc(C(=O)NC4CCN(c5ccc(F)cc5)CC4)c3c2)n1C . Its measured IC50 is 0.049

====

Target: UniProtKB P49841
Test: GSK3β kinase assay (Ser/Thr 09 peptide Z-lyte FRET)
Format: biochemical
Conditions: read-out: EC50 (method: IC50)
I'd be grateful if you could share measured pIC50 for these entries.
Give only the number. pIC50 is defined as minus log10 of concentration in molar units.

Assay UniProtKB P49841, sample O=C(Nc1ccc(N2CCCC2)nc1)c1n[nH]c2cc(F)c(-c3cnn(C4CC4)c3)cc12 [Compound 92] , pIC50 read: 6.16

Assay UniProtKB P49841, sample CC(C)n1cc(-c2ccc3[nH]nc(C(=O)Nc4ccc(CN5CCCC5)cc4)c3c2)cn1 [Compound 71] , pIC50 read: 6.77

Assay UniProtKB P49841, sample CN1CCC(Oc2ccc(NC(=O)c3n[nH]c4c(F)cc(-c5cnn(C)c5)cc34)cn2)CC1 [Compound 129] , pIC50 read: 7.06

Assay UniProtKB P49841, sample Cc1ncc(-c2ccc3[nH]nc(C(=O)N[C@@H](C)C(F)(F)F)c3c2)n1C [Compound 131] , pIC50 read: 7.57

Assay UniProtKB P49841, sample CCn1cc(-c2ccc3[nH]nc(C(=O)Nc4ccc(CN5CCCC5)cc4)c3c2)cn1 [Compound 70] , pIC50 read: 7.60

Assay UniProtKB P49841, sample O=C(Nc1ccc(OC(F)F)cc1)c1n[nH]c2cc(F)c(-c3cnn(C4CCNCC4)c3)cc12 [Compound 56] , pIC50 read: 6.48

Assay UniProtKB P49841, sample Cn1cc(-c2cc3c(C(=O)NC4CCC(F)(F)CC4)n[nH]c3cc2F)cn1 [Compound 15] , pIC50 read: 7.24

Assay UniProtKB P49841, sample CN1CCC(Oc2ncc(NC(=O)c3n[nH]c4cc(F)c(-c5cnn(C)c5)cc34)cc2F)CC1 [Compound 157] , pIC50 read: 7.70

====

Target: GSK3β kinase (Homo sapiens (Human))
Sequence (P49841 whole entry): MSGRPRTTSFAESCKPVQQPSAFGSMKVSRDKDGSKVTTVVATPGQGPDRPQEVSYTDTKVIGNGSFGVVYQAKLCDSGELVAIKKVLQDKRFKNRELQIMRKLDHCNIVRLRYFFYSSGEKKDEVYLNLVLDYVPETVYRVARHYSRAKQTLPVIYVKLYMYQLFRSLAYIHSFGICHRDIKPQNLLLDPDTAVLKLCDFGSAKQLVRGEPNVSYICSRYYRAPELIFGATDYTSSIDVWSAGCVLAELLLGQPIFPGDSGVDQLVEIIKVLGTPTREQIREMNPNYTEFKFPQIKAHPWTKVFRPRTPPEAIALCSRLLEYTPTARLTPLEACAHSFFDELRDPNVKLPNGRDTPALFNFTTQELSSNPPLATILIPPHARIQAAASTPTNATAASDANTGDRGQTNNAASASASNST
Experiment: GSK3β kinase assay (Ser/Thr 09 peptide Z-lyte FRET)
Format: biochemical
Conditions: read-out: EC50 (method: IC50)
assayMetric: IC50 (µM)
Your answer should be a plain number; it is taken to be in µM.

Consider C[C@H](NC(=O)c1n[nH]c2c(F)cc(-c3cnn(C)c3)cc12)C(F)(F)F . Its measured IC50 is 0.043

Consider CC(C)CN1CC[C@H](NC(=O)c2n[nH]c3ccc(-c4cnn(C)c4)cc23)[C@H](F)C1 . Its measured IC50 is 0.061

====

Biological target: UniProt:Q13627
Assay: DYRK1A kinase assay (Ser/Thr 18 peptide Z-lyte FRET)
Format: biochemical
Conditions: read-out: EC50 (method: IC50)
assayMetric: pIC50
Give only the number. pIC50 is defined as minus log10 of concentration in molar units.

Consider O=C(Nc1ccc(F)cc1)c1n[nH]c2ccc(-c3cnn(C4CCNCC4)c3)cc12 [Compound 48] . Its measured pIC50 is 7.64

Consider O=C(Nc1ccc(OC(F)F)cc1)c1n[nH]c2ccc(-c3cnn(C4CCOCC4)c3)cc12 [Compound 62] . Its measured pIC50 is 5.41

Consider Cn1cc(-c2cc(F)c3[nH]nc(C(=O)N[C@@H]4CCCC[C@H]4F)c3c2)cn1 [Compound 11] . Its measured pIC50 is 6.70

Consider Cn1cc(-c2cc(F)c3[nH]nc(C(=O)NC4CCC(F)(F)CC4)c3c2)cn1 [Compound 16] . Its measured pIC50 is 6.42

Consider Cn1cc(-c2ccc3[nH]nc(C(=O)Nc4cnn(C5CCNCC5)c4)c3c2)cn1 [Compound 140] . Its measured pIC50 is 8.70

Consider CN1CCC(Oc2ncc(NC(=O)c3n[nH]c4cc(F)c(-c5cnn(C)c5)cc34)cc2F)CC1 [Compound 157] . Its measured pIC50 is 9.00

Consider CCn1cc(-c2ccc3[nH]nc(C(=O)NC4CCC(F)(F)CC4)c3c2)cn1 [Compound 18] . Its measured pIC50 is 6.92

Consider Cn1cc(-c2ccc3[nH]nc(C(=O)NC4CCN(CC(C)(C)F)CC4)c3c2)cn1 [Compound 37] . Its measured pIC50 is 8.30

Consider Cc1cnc(NC(=O)c2n[nH]c3ccc(-c4cnn(C5CCN(C)CC5)c4)cc23)s1 [Compound 144] . Its measured pIC50 is 8.10

Consider Cn1cc(-c2ccc3[nH]nc(C(=O)NCC4CCC(F)(F)CC4)c3c2)cn1 [Compound 8] . Its measured pIC50 is 7.51

Consider CN1CCN(c2ccc(NC(=O)c3n[nH]c4cc(F)c(-c5cnn(C)c5)cc34)cn2)CC1 [Compound 95] . Its measured pIC50 is 9.00

Consider CC(C)n1cc(-c2ccc3[nH]nc(C(=O)Nc4ccc(CN5CCCC5)cc4)c3c2)cn1 [Compound 71] . Its measured pIC50 is 7.60

Consider Cc1ncc(-c2ccc3[nH]nc(C(=O)NC4CCC(F)(F)CC4)c3c2)n1C [Compound 22] . Its measured pIC50 is 7.60
